Target: β-adrenergic receptors
Assay: 3H-Dihydroalprenolol binding in hippocampal membranes
Parameters: species or system mouse
Conditions: hippocampal membranes of P2rx7+/+ mice
readout_name: pKd
Conceptually, pKd converts a concentration in mol/L into minus its log10.

Tested on β-adrenergic receptors, the item CCCc1ccccc1OCC(O)CNC(C)C (stereo not shown) [^3H-dihydroalprenolol] showed pKd equal to 9.30

---

Test system: BDNF level in hippocampal slices
Test: BDNF protein assay (ELISA), in vitro study in hippocampal slices
Format: cell-based, mouse
Settings: P2rx7+/+ slices; CNQX 10 µM, TCN-201 10 µM, RO-256981 3 µM, MCPG 200 µM
readout_name: effect on basal BDNF level, compound alone (no BzATP)

- structure_string: "C[C@@H](CN1CCC(Cc2ccccc2)CC1)[C@@H](O)c1ccc(O)cc1.O=C(O)/C=C\\C(=O)O"
  system: "BDNF level in hippocampal slices"
  recorded_value: "decreased"
- structure_string: "N#Cc1cc2[nH]c(=O)c(=O)[nH]c2cc1[N+](=O)[O-]"
  system: "BDNF level in hippocampal slices"
  recorded_value: "decreased"
